# Tested on: MDA-MB-231 breast
# Assay Explanation: NCI-60 one-dose screen, 48 h
# Condition Set: 10 µM unless noted
The panel holds about 83,000 compounds, 20% with a hit somewhere; the sample as a whole holds those more often. Activity calls are given as the source filed them. Rule for the calls: active = growth percent below 10; inactive = the rest.
Select the correct class. Options are active, inactive and nothing else.

molecule=CN1CC[C@@H](c2c(O)cc(O)c3c(=O)cc(-c4ccccc4Cl)oc23)[C@@H]1CO assay_system="MDA-MB-231 breast" group_label=active
molecule="N#Cc1c(-c2ccc(C(F)(F)F)cc2)c(F)c(NCCC2CCC(O)C2)n2c1nc1ccccc12 (stereo unspecified)" assay_system="MDA-MB-231 breast" group_label=inactive
molecule=Cc1ccc(-n2nc(C(C)(C)C)cc2NC(=O)NCc2cc(F)ccc2Oc2ccc3c(cnn3CCO)c2)cc1 assay_system="MDA-MB-231 breast" group_label=inactive
molecule=CN1CCN(CCOc2cc(OC3CCOCC3)c3c(Nc4c(Cl)ccc5c4OCO5)ncnc3c2)CC1 assay_system="MDA-MB-231 breast" group_label=inactive
molecule=C=CC(=O)Nc1cccc(Oc2nc(Nc3ccc(N4CCN(C)CC4)cc3)nc3ccsc23)c1 assay_system="MDA-MB-231 breast" group_label=active

(Q) What was the test verdict on "CC(C)Nc1cc(-c2c[nH]c(C(=O)N[C@H](CO)c3cccc(Cl)c3)c2)c(Cl)cn1" ?
(A) inactive

----------
Listed next: entries and their corresponding growth.
# Test system: OVCAR-5 ovarian
# Assay Explanation: NCI-60 one-dose screen, 48 h (100 = growth as untreated, 0 = no growth, -100 = all killed)
# Condition Set: 10 µM unless noted
The panel holds about 83,000 compounds, 20% with a hit somewhere; the sample as a whole holds those more often.
Answer with a number only, understood to be in %.

molecule=C/C(=C(/c1ccc(Cl)cc1)c1ccc(OCCN2CCCCCC2)cc1)c1ccccc1 assay_system="OVCAR-5 ovarian" value_type=growth reported_result=69.6
molecule=Cc1nc(Nc2n[nH]c3c2CN(C(=O)N[C@H](CN(C)C)c2ccccc2)C3(C)C)c2sccc2n1 assay_system="OVCAR-5 ovarian" value_type=growth reported_result=-2.55
molecule=COc1cc(Nc2ncc3c(n2)-c2ccc(Cl)cc2C(c2c(F)cccc2OC)=NC3)ccc1C(=O)O assay_system="OVCAR-5 ovarian" value_type=growth reported_result=82.4
molecule=Cc1ccc(NC(=O)Nc2ccc(Nc3ncnc4sc5c(c34)CCOC5)cc2)cc1Cl assay_system="OVCAR-5 ovarian" value_type=growth reported_result=114
molecule=Nc1ncnc2c1ccn2-c1cccc(NC(=O)c2ccc(N3CCOCC3)c(C(F)(F)F)c2)c1 assay_system="OVCAR-5 ovarian" value_type=growth reported_result=72.9

(Q) Sample COc1cc2c(c(OC)c1)C1c3ccccc3NC(=O)N1CC2 (stereo unspecified) — what was its growth?
(A) 48.6

(Q) Moving on to "COc1cnc2c(c1)C(=O)c1c-2n(CCCN2CCC(O)CC2)c(=O)c2cc(Cl)ccc12"
(A) 101

(Q) Moving on to COC(=O)[C@@H](OC)[C@@H]1Cc2cc3cc(OC4CC(OC5CC(O)C(O)C(C)O5)C(O)C(C)O4)c(C)c(O)c3c(O)c2C(=O)[C@H]1OC1CC(OC2CC(OC3CC(C)(O)C(O)C(C)O3)C(O)C(C)O2)C(O)C(C)O1 (stereo partly specified)
(A) 18.8

(Q) Moving on to "CCN1CCN(c2nc(C)cc(N(CCNc3ccnc4cc(Cl)ccc34)Cc3ccc4c(c3)OCO4)n2)CC1"
(A) 78.2

(Q) Moving on to "COC(=O)c1ccc2c(C(=Nc3ccc(N(C)C(=O)CN4CCN(C)CC4)cc3)c3ccccc3)c(O)[nH]c2c1"
(A) 64.5

(Q) Moving on to "COC(=O)[C@]12CC[C@@H](C)[C@H](C)[C@@H]1C1=CC[C@@H]3[C@@]4(C)C[C@@H](OC(=O)/C=C/c5ccccc5)[C@H](O)[C@@](C)(CO)[C@@H]4[C@H](O)C[C@@]3(C)[C@]1(C)CC2"
(A) -27.6

(Q) Moving on to "O=C(c1ccc(F)c(F)c1Nc1ccc(I)cc1F)N1CC(O)([C@@H]2CCCCN2)C1"
(A) 7.14

----------
# System: EKVX NSCLC
# Assay Explanation: NCI-60 one-dose screen, 48 h (100 = growth as untreated, 0 = no growth, -100 = all killed)
# Condition Set: 10 µM unless noted
The panel holds about 83,000 compounds, 20% with a hit somewhere; the sample as a whole holds those more often.
Value Type: growth (%)
Answer with a number only, understood to be in %.

Consider the worked cases shown below.
smi=C=CC(=O)N1CCC[C@H](n2c(=O)n(-c3ccc(Oc4ccccc4)cc3)c3c(N)ncnc32)C1 reported_result=57.4
smi=Cc1cc(Oc2ccccc2)ccc1Nc1ncnc2ccc(-c3cnc(Cl)c(NS(C)(=O)=O)c3)cc12 reported_result=21.3
smi=CCCS(=O)(=O)Nc1ccc(F)c(C(=O)c2c[nH]c3ncc(-c4ccc(Cl)cc4)cc23)c1F reported_result=43.1
smi=C[C@H](NC(=O)c1c(N)nn2cccnc12)c1cc2cccc(C#Cc3cnn(C)c3)c2c(=O)n1-c1ccccc1 reported_result=33.9

As a next step, examine the compound that follows.
(Q) Sample "Cc1ccc(N)cc1CN1C(=O)c2ccccc2C1=O" — what was its growth?
(A) 105

----------
# Tested on: RPMI-8226 leukemia
# Assay Explanation: NCI-60 one-dose screen, 48 h (100 = growth as untreated, 0 = no growth, -100 = all killed)
# Condition Set: 10 µM unless noted
About 83,000 compounds went through this panel and 20% of them were active in at least one assay; those are over-represented in the sample as a whole.
Value Type: growth (%)
Answer with a number only, understood to be in %.

Consider the worked cases shown below.
molecule=C=CC(=O)Nc1cc(Nc2nccc(-c3cn(C)c4ccccc34)n2)c(OC)cc1N(C)CCN(C)C value_type=growth result_units=% reported_result=-22
molecule=CC(C)NC[C@@H](C(=O)N1CCN(c2ncnc3c2[C@H](C)C[C@H]3O)CC1)c1ccc(Cl)cc1 value_type=growth result_units=% reported_result=61.2
molecule=COc1cc2c(Oc3ccc4[nH]c(C)cc4c3F)ncnc2cc1OCCCN1CCCC1 value_type=growth result_units=% reported_result=110

(Q) Sample "N#Cc1c(NC(=O)c2ccco2)[n+]([O-])c2cc(F)c(F)cc2[n+]1[O-]" — what was its growth?
(A) 17.8

(Q) Moving on to "Cn1c(=O)c(F)c(Nc2ccc(I)cc2F)c2c(=O)n(C[C@@H](O)CO)cnc21"
(A) 61.2

(Q) Moving on to "N#Cc1c(-c2ccc(C(F)(F)F)cc2)cc(NCC2CCS(=O)(=O)CC2)n2c1nc1ccccc12"
(A) 80.9

(Q) Moving on to "CC(=O)Nc1cccc(-n2c(=O)n(C3CC3)c(=O)c3c(Nc4ccc(I)cc4F)n(C)c(=O)c(C)c32)c1"
(A) 45.5

(Q) Moving on to "C=C1C(=O)O[C@H]2[C@H]1CC/C(CNC(=O)c1cc3cc(OC)ccc3[nH]1)=C\CC[C@@]1(C)O[C@@H]21"
(A) -38.4

(Q) Moving on to "CN(c1ncccc1CNc1nc(Nc2ccc3c(c2)CC(=O)N3)ncc1C(F)(F)F)S(C)(=O)=O"
(A) -7.65

(Q) Moving on to CC(=O)CC1CCCC1c1ccc2ccccc2c1 (stereo unspecified)
(A) 103

(Q) Moving on to COC(=O)[C@H](C)NC(=O)[C@@H](OC)[C@@H]1Cc2cc3cc(OC4CC(OC5CC(O)C(O)C(C)O5)C(O)C(C)O4)c(C)c(O)c3c(O)c2C(=O)[C@H]1OC1CC(OC2CC(OC3CC(C)(O)C(O)C(C)O3)C(O)C(C)O2)C(O)C(C)O1 (stereo partly specified)
(A) -5.91

(Q) Moving on to CO[C@H](C(=O)N[C@@H](CCCCNC(=O)OCc1ccccc1)C(=O)OC(C)(C)C)[C@@H]1Cc2cc3cc(OC4CC(OC5CC(O)C(O)C(C)O5)C(O)C(C)O4)c(C)c(O)c3c(O)c2C(=O)[C@H]1OC1CC(OC2CC(OC3CC(C)(O)C(O)C(C)O3)C(O)C(C)O2)C(O)C(C)O1 (stereo partly specified)
(A) -5.01

(Q) Moving on to "COc1ccc2c(c1)cn1c3ccc(O)cc3nc(N)c21"
(A) 25.4

(Q) Moving on to "COc1cc(F)c(F)c(Nc2ccc(I)cc2F)c1NS(=O)(=O)C1(C[C@H](O)CO)CC1"
(A) 37.8

(Q) Moving on to "C[C@@H](C[C@H](CCO)c1cc(C(F)(F)F)cc(C(F)(F)F)c1)c1ccc2ccccc2c1"
(A) 79.3

(Q) Moving on to "CC(C)CC(=O)Nc1n[nH]c2c1CN(C(=O)C1CCN(C)CC1)C2(C)C"
(A) 3.37

Recorded values, source PubChem BioAssay (NCI).
